- Tested on: FaPAO5
- Construct: 105 kDa fusion protein
- Method description: isothermal titration calorimetry
- Experimental context: pH 7.4, 30 °C, 200 mM NaCl, 20 mM Tris, 0.5 mM EDTA, 10 mM maltose; MBP fusion protein (10 µM in Methods, 20 µM in Results); ligand 100 µM
Attribute measured: Kd (nM)
Answers are plain numbers, in nM.

QUERY: Requested field: Kd. Item: `NCCCNCCCCNCCCN`
RESULT: 210

Note: attention shifts to another entry.
QUERY: Requested field: Kd. Item: `NCCCCNCCCN`
RESULT: 290
